System: immortalized murine embryonic fibroblasts (Mef)
METHOD_SUMMARY: Pooled negative selection RNAi screening (deep sequencing)
Format: cell-based
CONDITION_INFO: deep sequencing reads, on dox compared to initial representation

MOLECULE	UNIT_SPEC	Fold depletion in Mef
Pctk1.948: shRNA, SEQ ID NO: 161 (nucleic acid) TGCTGTTGACAGTGAGCGCCCGGGAAGTATCCCTGCTTAATAGTGAAGCCACAGATGTATTAAGCAGGGATACTTCCCGGATGCCTACTGCCTCGGA	Fold	0.27
Nln.1429: shRNA, SEQ ID NO: 151 (nucleic acid) TGCTGTTGACAGTGAGCGAAAGGATAAAGCTACTGGAGAATAGTGAAGCCACAGATGTATTCTCCAGTAGCTTTATCCTTCTGCCTACTGCCTCGGA	Fold	1.61
Ap1s2.2744: shRNA, SEQ ID NO: 90 (nucleic acid) TGCTGTTGACAGTGAGCGACAGGAGCAAGATGAGTTACTATAGTGAAGCCACAGATGTATAGTAACTCATCTTGCTCCTGCTGCCTACTGCCTCGGA	Fold	2.31
Nrp1.479: shRNA, SEQ ID NO: 155 (nucleic acid) TGCTGTTGACAGTGAGCGCACCCTCATTCTTACCATCCAATAGTGAAGCCACAGATGTATTGGATGGTAAGAATGAGGGTATGCCTACTGCCTCGGA	Fold	0.83

Sourced from patent US8895526B2
